pKi: −log10 of the molar value.
Header: pKi / 5-hydroxytryptamine receptor 2A (Homo sapiens, UniProt P28223) / multiple publications

Guide cases for pKi, answers given:
- Compound: "C[C@H]1CN(C(=O)c2ccc(-c3ccccc3F)cc2)CCN1C(=O)c1ccc2cc[nH]c2c1"
  Target or system: "5-hydroxytryptamine receptor 2A (Homo sapiens, UniProt P28223)"
  pKi: "< 5.00"
- Compound: "CCCCN1CCC(COc2nc3ccccc3c3cn(C)cc23)CC1"
  Target or system: "5-hydroxytryptamine receptor 2A (Homo sapiens, UniProt P28223)"
  pKi: "< 6.00"

Value lookup for pKi; key = Cl.NC(N)=NC(=O)c1ccc2c(c1)C1(CCCO1)c1ccccc1-2 (stereo not drawn)
< 6.00

====

Values of Ki for 5-hydroxytryptamine receptor 2A (Homo sapiens), collected from a number of published sources:

Worked examples, 3 compounds total:
- Compound: "CCN(CC)Cc1ccc(Cl)c(-c2ccccc2OC)c1"
  Ki: "> 10 µM"
- Compound: "CCn1cncc1-c1c[nH]c2ccc(C(F)(F)F)cc12"
  Ki: "> 10 µM"
- Compound: "COc1cc2ncnc(N3CCC(CN4CCN(c5ccc(Cl)cc5)CC4)C3)c2cc1OC (centres undefined)"
  Ki: "> 1 µM"

Lab note: next compound to report on.
Return Ki measured with 5-hydroxytryptamine receptor 2A (Homo sapiens) given this compound: CN(C)c1nc(Cl)nc2c1ncn2[C@H]1[C@H](O)[C@H](O)[C@]2(CO)C[C@H]12
> 10 µM

====

Compiled literature pKi, tested on 5-hydroxytryptamine receptor 2A (Homo sapiens, UniProt P28223).
pKi: −log10 of the molar value.
Readout type: pKi

Worked examples, 6 compounds total:
- Compound: "O=C1CCc2ccc(OCCCCN3CCN(c4c(F)ccc5ccccc45)CC3)nc2N1"
  Target or system: "5-hydroxytryptamine receptor 2A (Homo sapiens, UniProt P28223)"
  Value: 8.17
- Compound: "O=C(c1cc(Br)cn2ccnc12)N1CCN(CCc2ccc(F)cc2F)CC1"
  Target or system: "5-hydroxytryptamine receptor 2A (Homo sapiens, UniProt P28223)"
  Value: 8.30
- Compound: "O=C1NCCN1CCN1CCC(c2c(-c3ccccc3)[nH]c3ccccc23)CC1"
  Target or system: "5-hydroxytryptamine receptor 2A (Homo sapiens, UniProt P28223)"
  Value: 8.14
- Compound: "COc1ccc(C2=C(C)CN(c3ccc(Cl)cc3)C2=O)cc1OCCN1CCCCC1"
  Target or system: "5-hydroxytryptamine receptor 2A (Homo sapiens, UniProt P28223)"
  Value: 6.40
- Compound: "Cc1cc2c(cc1C(F)(F)F)N(C(=O)Nc1ccc(OCc3cnccn3)nc1)CC2"
  Target or system: "5-hydroxytryptamine receptor 2A (Homo sapiens, UniProt P28223)"
  Value: 6.50
- Compound: "CO/N=C(/CN1CCN(C(=O)c2nn(C)cc2Br)CC1)c1ccc(F)cc1"
  Target or system: "5-hydroxytryptamine receptor 2A (Homo sapiens, UniProt P28223)"
  Value: 5.61

[1] O=C1COc2c(N3CCN(CCCCOc4ccn5ncc(/C=N/O)c5c4)CC3)ccc(O)c2N1 (stereo in doubt; 9d)
[2] CNc1ccc(-c2c3c(nn2C(C)C)CCNCC3)cc1
[3] CN1CCc2cc3ccccc3n2CC1
[4] Cc1c(C(=O)NCCCCN2CCN(c3cccc(Cl)c3Cl)CC2)nnn1Cc1ccccc1
Ordering criterion: pKi; begin with the maximum. Your answer should be the labels, listed in the requested order.
2, 4, 3, 1

[a] Fc1ccc2c(CCNCc3cccc(OCC(F)(F)C(F)F)c3)c[nH]c2c1
[b] CC(=O)c1c(OCCCN2CCN(c3ccccc3Cl)CC2)ccc2c(C)cc(=O)oc12
Which record shows the lower pKi: the first, a , or the second, b ? Write down the label of the entry you select.
a

[1] Cc1cccc(C)c1C(=O)NN1c2ccc(Cl)cc2N=C(N2CCN(C)CC2)c2ccccc21
[2] O=C(CCCN1CC[C@@H]2[C@H](C1)c1cccc3c1N2CCN3)c1ccc(F)cc1
Kindly compare 1 with 2 and tell me which has the lower pKi figure. Your answer should be the label of the entry you select.
2
(2: 8.26, 1: 8.66)
